# credit: paper PMC6611404

System Tested: human 5-HT6 receptors (Homo sapiens)
Construct: purchased Perkin Elmer RBHS6M; host or cells: HEK-293 cells, transient expression (membranes)
Sequence (P50406 whole entry): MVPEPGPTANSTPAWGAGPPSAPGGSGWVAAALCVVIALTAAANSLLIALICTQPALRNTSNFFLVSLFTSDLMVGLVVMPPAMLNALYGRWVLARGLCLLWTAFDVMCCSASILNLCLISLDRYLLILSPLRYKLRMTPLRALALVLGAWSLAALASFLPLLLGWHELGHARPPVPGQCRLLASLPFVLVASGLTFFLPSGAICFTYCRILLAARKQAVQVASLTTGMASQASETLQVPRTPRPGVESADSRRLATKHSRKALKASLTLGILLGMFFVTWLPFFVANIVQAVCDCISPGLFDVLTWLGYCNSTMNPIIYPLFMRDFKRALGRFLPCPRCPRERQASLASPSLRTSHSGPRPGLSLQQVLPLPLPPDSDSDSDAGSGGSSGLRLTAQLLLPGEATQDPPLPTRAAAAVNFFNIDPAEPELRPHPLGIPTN
Assay Name: [3H]-LSD competition binding on membranes of HEK-293 cells expressing human 5-HT6 receptors
Conditions Used: read-out: (h)5-HT6R % inhibition at 10^−8M, 10^−8M; 2.5 nM [3H]-LSD
Protocol: Drugs were evaluated through their possibility to compete for the binding of [^3H]-LSD on membranes of HEK-293 cells transiently expressing the human 5-HT6 receptors (ref. RBHS6M, Perkin Elmer). […] Non-specific binding was evaluated in the presence of 100 μM serotonin. Radioactivity associated to proteins was then quantified and expressed as the percentage of inhibition of the drugs under study. […]
Rule: inhibition of 6% or more gives met; anything lower gives not met.

INSERT INTO results (smi, system_tested, discrete_label) VALUES
  ('COc1cc(N)c(Cl)cc1C(=O)CCC1CCN(Cc2cccc(C)c2)CC1', 'human 5-HT6 receptors (Homo sapiens)', 'met'),
  ('COc1cc(N)c(Cl)cc1C(=O)CCC1CCN(Cc2cccc(Br)c2)CC1', 'human 5-HT6 receptors (Homo sapiens)', 'met'),
  ('COc1cc(N)c(Cl)cc1C(=O)CCC1CCN(Cc2cc(N)ccc2F)CC1', 'human 5-HT6 receptors (Homo sapiens)', 'not met'),
  ('COc1cc(N)c(Cl)cc1C(=O)CCC1CCN(Cc2ccc(O)cc2)CC1', 'human 5-HT6 receptors (Homo sapiens)', 'not met'),
  ('COc1cc(N)c(Cl)cc1C(=O)CCC1CCN(Cc2ccccc2F)CC1', 'human 5-HT6 receptors (Homo sapiens)', 'met'),
  ('COc1cc(N)c(Cl)cc1C(=O)CCC1CCN(Cc2cc(NC(C)=O)ccc2Br)CC1', 'human 5-HT6 receptors (Homo sapiens)', 'met'),
  ('COc1cc(N)c(Cl)cc1C(=O)CCC1CCN(Cc2ccccc2Br)CC1', 'human 5-HT6 receptors (Homo sapiens)', 'met'),
  ('COc1cc(N)c(Cl)cc1C(=O)CCC1CCN(Cc2ccccc2C)CC1', 'human 5-HT6 receptors (Homo sapiens)', 'met');

Evaluate `COc1cc(N)c(Cl)cc1C(=O)CCC1CCN(Cc2ccccc2OCc2ccccc2)CC1` : inhibition at minimum 6%?
not met
